Biological target: pooled human IgG (human IgG1,2,3 and 4)
OUTCOME_MEASURE: Enzyme Activity Endpoint Assay (purified): Fab'2
Report field: quantity (unit follows the number).

# PROTEIN, RECORDED_MEASUREMENT
data = [
    ("PRT-328 (protein) MTITSVWTKGVTPPTPEDFRKNNEDVLHAPYVANQGWYDITKTFDGKDNLLCGAATAGNMLHWWFDQNKEEIERYLKKHPEKQKIIFNNQELFDVKAAIDTKDSQTNSKLFNYFRDKAFPGLSARQLGVFPDLVLDMFINGYYLNLGKTQSTDVNRPYQDKDKRGGIFDAVFTRGVQTTLLTARHDLKNKGLNEISDLIKQELTEGKALALSHTYANVRINHVINLWGADFDAEGNLIAIYVTDSDANASIGMKKYFVGRNANGKVAISAKKIEGDNIGAQVLGLFTLSTGQDIWQKLS", "1000 ng/µL"),
    ("PRT-336 (protein) MTITSVWTKGVTPPTPEDFRENNEDVLHAPYVANQGWYDITKTFDGKDNLLCGAATAGNMLHWWFDQNKEEIERYLKKHPEKQKIIFNNQELFDVKAAIDTKDSQTNSKLFDYFRDKAFPGLSARQLGVFPDLVLDMFINGYYLNLGKTQSTDVNRPYQDKDKRGGIFDAVFTRGVQTTLLTARHDLKNKGLNEISDLIKQELTEGKALALSHTYANVRINHVINLWGADFDAEGELIAIYVTDSDANPSIGMKKYFVGRNANGKVAISAKKIEGDNIGAQVLGLFTLSTGQDIWQKLS", "50 ng/µL"),
]

Now turn to the next protein.
Query string: I'd like to know its Enzyme Activity Endpoint Assay (purified): Fab'2. The protein in question is PRT-318 (protein) MTITSVWTKGVTPPTPEDFRYNNEDVLHAPYVANQGWYDITKTFDGKDNLLCGAATAGNMLHWWFDQNKEEIERYLKKHPEKQKIIFNNQEWFDVKAAIDTKDSQTNSKLFDYFRDKAFPNLSARQLGVMPDLVLDMFINGYYLNLGKTQSTDVNRPYQDKDKRGGIFDAVFTRGDQTTLLTARHDLKNKGLNEISDLIKQELTEGKALALSHTYANVRINHVINLWGADFDAEGNLIAIYVTDSDANASIGMKKYFVGVNANGKVAISAKKIEGDNIGAQVLGLFTLSLGQDIWQKLS
Result string: 641 ng/µL
